# Tested on: CAKI-1 renal
# PROCEDURE DETAILS: NCI tumour cell line growth inhibition, 48 h
Would you please tag the item 1.0 when its TGI is 70 µM or above, and 0.0 when it is below?

1) Cc1ccc(S(=O)(=O)Nc2ccccc2C(=O)c2ccc(C)c(C)c2)cc1
1.0
2) COc1ccc(-c2nc(SCC(=O)N/N=C/c3ccc(N(C)C)cc3)[nH]c2-c2ccc(OC)cc2)cc1
1.0
3) N#CC(C#N)=CNC(N)=S
1.0
4) O=[N+]([O-])C(/C=C(\Cl)n1nnc2ccccc21)=C(/Cl)n1nnc2ccccc21
1.0
5) Cc1ccc(S(=O)(=O)N/N=C/C2(c3ccccc3)c3ccccc3-c3ccccc32)cc1
0.0

stdin: Quick check: does COc1ccc2c(c1)OCC1Cc3ccccc3OC21 (stereo unspecified) have TGI greater than or equal to 70 µM?
stdout: 1.0

stdin: # bool: TGI of "N#Cc1c(-c2ccccc2)/c(=C\Nc2ccc(F)cc2)c(=O)n2c1nc1ccccc12" >= 70 µM
stdout: 0.0

stdin: Is the recorded value of TGI equal to or greater than 70 µM for this compound? "Cc1cc2c(cc1Cl)SC(N(N(C)C)S(=O)(=O)c1ccc(Cl)cc1)=NS2(=O)=O"
stdout: 0.0

stdin: Check the entry OC(c1nc2ccccc2[nH]1)C(O)C(O)C(O)c1nc2ccccc2[nH]1 (stereo unspecified) : does TGI equal or exceed 70 µM?
stdout: 1.0

stdin: Is reported TGI greater than or equal to 70 µM here: CC(=O)[C@@]12O[C@@H]1CC1C3CCC4=CC(O)CCC4(C)C3CCC12C (stereo partly specified)
stdout: 1.0

stdin: Does the reported TGI for "N=Nc1c(OC(=O)Nc2cccc(Cl)c2)[nH]c2ccccc12" fall at or above the 70 µM mark?
stdout: 0.0

stdin: Exam item: decide whether the reported TGI for "Cn1c2ccccc2c2cc(-c3ccccc3)c3c(c21)C(=O)c1ccccc1C3=O" is at least 70 µM.
stdout: 1.0

stdin: # check: TGI of "CCN(CC)/C(SCc1ccccc1)=C(\C(Cl)=C(Cl)Cl)[N+](=O)[O-]" is greater than or equal to 70 µM
stdout: 1.0

----------
# Tested on: SK-MEL-2 melanoma
# PROCEDURE DETAILS: NCI tumour cell line growth inhibition, 48 h
QUANTITY: GI50

1. C=C1NC(=O)C(C(C)CC)NC(=O)C2CSCC(NC(=O)CCC(=O)O)C(=O)NC(Cc3ccccc3)C(=O)NC(C)C(=O)NC(CC(C)CC)C(=O)NC(C(=O)NC(Cc3ccccc3)C(=O)N3CCCC3C(=O)N2)C(C)OC(=O)C(CO)NC(=O)C(C(O)COC)N(C)C(=O)C(C(C)C)NC(=O)C(CC(C)CC)NC1=O (configuration not stated)
4.85 nM

Kindly review the next compound as well.
Consider C[C@@H]1CCC2[C@@H](C)[C@@H](OCC(CO[C@H]3OC4O[C@@]5(C)CC[C@H]6[C@H](C)CCC([C@H]3C)[C@@]46OO5)OC(=O)CCC(=O)O)OC3O[C@@]4(C)CC[C@@H]1[C@]32OO4 (some centres not stated) . Its measured GI50 is 4220 nM

----------
# System: T-47D breast
# PROCEDURE DETAILS: NCI tumour cell line growth inhibition, 48 h; in the data active means GI50 below about 0.43 µM; inactive means the rest
In this exercise, the only acceptable responses are TRUE for active, FALSE for inactive

Some solved entries appear below for comparison.
1. CN1CCN(CCCn2c(=O)c3sc4ncccc4c3n3nnc(-c4ccccc4)c23)CC1
FALSE
2. OCC#Cc1ccccc1C#Cc1ccccc1
FALSE
3. CCN(CC)c1ccc(-c2cc(-c3cc(OC)c(OC)c(OC)c3)nc(N3CCOCC3)c2C#N)cc1
FALSE
4. COc1cc(/C=C2\CN(S(=O)(=O)c3ccccc3)C/C(=C\c3cc(CN4CCCC4)c(O)c(OC)c3)C2=O)cc(CN2CCCC2)c1O
FALSE
5. O=C(/C=C/c1ccc(Cl)cc1)c1ccc(Nc2ccnc3cc(Cl)ccc23)cc1
FALSE
6. COc1cc(/C=C/c2cc(O)c(C(C)=O)c(O)c2)cc2c1O[C@]1(C)CC[C@@H](O)C(C)(C)[C@H]1C2
FALSE
7. C=C1C(=O)O[C@H]2[C@H]1CC/C(COC(=O)c1c[nH]c3ccccc13)=C\CC[C@@]1(C)O[C@@H]21
TRUE
8. Nc1ncnc2c1nnn2C1OC(CO)C(O)C1O (centres undefined)
TRUE

Please find the next compound below.
stdin: Outcome? "COc1cc2c3c(n(C)c(=O)c2cc1OC)-c1cc2c(cc1/C3=C\CCCN)OCO2"
stdout: FALSE

----------
# Test system: BT-549 breast
# PROCEDURE DETAILS: NCI tumour cell line growth inhibition, 48 h
Listed next: entries and their corresponding log10 TGI.
Recorded TGI (log10, µM)

1. COc1cc2c3c(n(C)c(=O)c2cc1OC)-c1cc2c(cc1/C3=C\CCN)OCO2
1.66
2. COc1cc(/C=C2\CN(S(=O)(=O)c3ccccc3)C/C(=C\c3cc(CN4CCCC4)c(O)c(OC)c3)C2=O)cc(CN2CCCC2)c1O
0.71
3. O=c1c2sc(=S)n(-c3ccc(F)cc3)c2ncn1/N=C/c1ccc(F)cc1F
1.57
4. O=C1NCCN1/N=C/c1c(Cl)n(-c2ccccc2)c2ccccc12
1.56
5. COC1=CC(=O)C(C2CC(=O)c3c(O)cc(O)cc3O2)=CC1=O (configuration not stated)
1.63
6. CCCCCCCCC/C=C1\CCC(CN2CCOCC2)C1=O (configuration not stated)
0.58
7. CC(C)(C)OC(=O)N[C@H]1CC2(C=C(Cl)C(=O)C(Cl)=C2)OC1=O
1.48
8. O=[N+]([O-])c1ccc(Oc2c(Cl)cc(S(=O)(=O)/N=C(\NO)Nc3ccc(Cl)cc3)cc2Cl)cc1
1.40

Entry "NC1(C(=O)OCc2ccccc2)CCCC1" : log10 TGI on BT-549 breast = 1.53

Sample "C=C1C(=O)O[C@H]2[C@H]1CC/C(COC(=O)c1c[nH]c3ccccc13)=C\CC[C@@]1(C)O[C@@H]21" , system: BT-549 breast. Its log10 TGI is -0.38

----------
Below, each of the compounds is paired with its reported TGI value.
# Tested on: SNB-19 CNS
# PROCEDURE DETAILS: NCI tumour cell line growth inhibition, 48 h
Enter your answer as a number in µM; do not include the unit.

1) COc1cc(/C=C2\CN(S(=O)(=O)c3ccccc3)C/C(=C\c3cc(CN4CCCC4)c(O)c(OC)c3)C2=O)cc(CN2CCCC2)c1O
3.08

Record "[O-][n+]1ccccc1Sc1nc(Sc2cccc[n+]2[O-])nc(Sc2cccc[n+]2[O-])n1" . Reported TGI: 26.1

----------
Each entry below carries its reported TGI.
# Test system: MDA-MB-435
# PROCEDURE DETAILS: NCI tumour cell line growth inhibition, 48 h
Provide the reading as a plain figure in µM.

1) COc1ccc(-c2nnc(COc3ccc(NC(=O)Nc4cc(C(F)(F)F)cc(C(F)(F)F)c4)cc3F)o2)cc1
5

Moving on to the next compound.
Input COc1ncnc(NS(=O)(=O)c2ccc(N=C3C(=O)N(CN4CCN(c5c(F)cc6c(=O)c(C(=O)O)cn(C7CC7)c6c5OC)CC4C)c4ccc(Cl)cc43)cc2)c1OC (stereo not drawn) . Output TGI: 19

----------
# Test system: SK-MEL-28 melanoma
# PROCEDURE DETAILS: NCI tumour cell line growth inhibition, 48 h
The reader will find reported TGI values listed item by item below.

Sample records with TGI:
1. CC(=O)OC1=CC(n2cc(F)c(=O)[nH]c2=O)OC(C)C1=O (stereo not given)
> 100 µM
2. Cc1ccc(-c2[nH]c(=O)n(C3OC(CO)C(O)C(O)C3O)c(=O)c2C#N)cc1 (stereo not given)
> 100 µM
3. O=c1c2sc(=S)n(-c3ccc(F)cc3)c2ncn1/N=C/c1ccc(F)cc1F
> 100 µM
4. COc1ccc2c(c1)/C(=C\c1c(Cl)nc3sc(C)cn13)C(=O)N2
25.5 µM

API: the following record is the query input.
Lab note: measured TGI of CC(=O)OC1COC(n2ccc3cc(Br)c([N+](=O)[O-])cc32)C(OC(C)=O)C1OC(C)=O (stereo not given) was > 100 µM

----------
# Test system: SK-MEL-5 melanoma
# PROCEDURE DETAILS: NCI tumour cell line growth inhibition, 48 h
Below is a list of entries, each paired with its recorded TGI value.

Use these answered entries as a reference point.
1. ClCc1cccc(Cn2cnc3ncnc(Cl)c32)c1
18.2 µM
2. CN(C)C1(N(C)C)Oc2c(c(=O)n(C)c(=O)n2C)C(c2ccc(Br)cc2)C1(F)F (stereo not given)
> 100 µM
3. CCN1c2ccccc2C(C(SC)S(=O)(=O)c2ccc(C)cc2)c2c1[nH]c(=O)n(C)c2=O (stereo not given)
> 100 µM
4. Nc1ncnc2c1nnn2C1OC(CO)C(O)C1O (stereo not given)
5.63 µM
5. CCN(CC)CCn1c(=O)c2cccnc2n2c3c(=O)n(C)c(=O)n(C)c3nc12
> 100 µM
6. CC(=N/N=C/c1ccccn1)/C(C)=N/N=C(C)/C(C)=N/N=C(C)/C(C)=N/N=C(C)/C(C)=N\N=C\c1ccccn1
> 100 µM

Kindly note the recorded TGI for "Cc1cccc(NC(=O)Cn2cnc3sc(C(=O)OC(C)C)c(C)c3c2=O)c1" , which is > 50 µM

Lab book: TGI of "Fc1cc2[nH]ncc2c2c3c(c(-c4cn[nH]c4)nc12)CCCC3" noted as 2.12 µM

For reference, reported TGI for "O=C1NCC2(CCN(CCCC3(c4ccc(F)cc4)OCCO3)CC2)N1c1ccccc1" stands at > 100 µM

Notebook: "Cc1c2c(nn1-c1ccc(S(=O)(=O)/N=C3\SCCC(=O)N3c3ccccc3)cc1)-c1ccccc1CC2" , TGI read as > 100 µM
